Test system: NCI-H460 lung
RUN_DESCRIPTION: NCI-60 one-dose screen, 48 h (100 = growth as untreated, 0 = no growth, -100 = all killed)
CONDITION_CONTEXT: 10 µM
Compounds without any hit were thinned out: in the full panel of roughly 83,000, 20% have a hit.
QUANTITY_MEASURED: growth (%)
State just the number; it will be interpreted in %.

MOLECULE	growth [%]
Cc1ccc(COc2ccc(NC(=O)Nc3ccc(Cl)c(C(F)(F)F)c3)cc2)cc1	59.5
COc1ccc(C(=O)COc2ccc(NC(=O)Nc3ccccc3)cc2)cc1	76.6
COc1cc(C2CC(c3ccc(Oc4ccc(Cl)cc4)cc3)=NN2c2nc(-c3ccc(Cl)cc3)c(C#N)c(N3CCOCC3)n2)cc(OC)c1OC (stereo not given)	107
Cc1cc(N=C2NC(=O)S/C2=C\c2ccc(F)cc2)n[nH]1	5.74
O=C(CSc1nc2ccccc2c(=O)n1-c1ccc(Cl)cc1)Nc1ccc(-c2nc3ccc([N+](=O)[O-])cc3[nH]2)cc1	21.1

## Task Entry COc1ccc(Cn2cc(C#N)c(N)c2C(C)=O)c(OC)c1 : reported growth = ?
## Result 108

## Task Entry COc1ccc(NCc2cn(-c3ccc(C(=O)O)cc3)nc2-c2ccc(F)cc2)cc1C(F)(F)F : reported growth = ?
## Result 37.2
